Tested on: Saccharomyces cerevisiae;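 further: PSI is a weighted mean of sequencing reads over stability bins, variants kept only with over 10 reads, mCherry proximal and sfGFP distal, peptide attached via GGGS linker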
Assay: protein stability index of tFT-peptide fusion (C-terminal peptide) (PSI (0-1 scale)); higher = more stable (slower turnover)
Conditions: genetic background: wild type; temperature: 30 C
Decide by protein stability index: equal to or exceeding 0.7 means label 1, less means label 0.

[Q] Check this sequence for protein stability index at or above 0.7: "KIEHEGIKKGGT"
[A] label 1

[Q] Is the recorded value of protein stability index equal to or greater than 0.7 for this sequence? "PLPLPPSPPFQF"
[A] label 1

[Q] Please indicate if the recorded protein stability index for "VWTATLRPPGHP" meets or exceeds 0.7.
[A] label 0

[Q] I'd appreciate it if you could say whether "LALYISFGLSLI" has protein stability index at least equal to 0.7.
[A] label 0

[Q] State whether the measured protein stability index reaches 0.7, counting equality as reaching it, for "NISIFGSRLRVV"
[A] label 0

[Q] Please check the record "GVSCIAEGRGGL" and state if its protein stability index is at or above 0.7.
[A] label 0

[Q] Determine whether this sequence has protein stability index no lower than 0.7: "MGLRDPEWSGDI"
[A] label 0

[Q] Decide: protein stability index of "YLSPSTPLPVVL" >= 0.7?
[A] label 0

[Q] Tell me whether protein stability index is at least 0.7 here: "VWVGGGRRDPKY"
[A] label 1

[Q] Does "YRYGVSWFDWRI" have a reported protein stability index of at least 0.7?
[A] label 1

[Q] Entry "FRKTDYMVHNGI" : is its protein stability index no less than 0.7?
[A] label 0

[Q] Record "YCHLNLHGCKGC" ; criterion: protein stability index no lower than 0.7. Met?
[A] label 0

[Q] Is it the case that "LAPSPTSRPIKC" has protein stability index reaching or exceeding 0.7?
[A] label 0

[Q] Answer whether protein stability index of "STPVKLPTSSLP" is greater than or equal to 0.7.
[A] label 0

[Q] # bool: protein stability index of "VRVVPPQPELSP" >= 0.7
[A] label 0

[Q] Does the sequence "RRSCSMQISSRN" have recorded protein stability index that is 0.7 or more?
[A] label 0

[Q] API: above_or_equal(metric=protein stability index, cutoff=0.7) for item "QIQNRVDYRIKL"
[A] label 0

[Q] For this sequence, is measured protein stability index 0.7 or higher? "GGALLGGGAMGL"
[A] label 0

[Q] Is protein stability index at least 0.7? Consider "TFVSPPPHPLRP"
[A] label 0

[Q] Would you say "ISVPNPTRPDHP" shows protein stability index at minimum 0.7?
[A] label 0

[Q] // inclusive: protein stability index at least 0.7? input: "QSTGDFAVRQSF"
[A] label 1

[Q] Given "ACVRFPLVLVVF" , state whether its protein stability index is at least 0.7.
[A] label 0

[Q] Given the entry "RDLVEQTLHIEY" , answer whether its protein stability index meets or surpasses 0.7.
[A] label 0

[Q] For this sequence, is measured protein stability index 0.7 or higher? "IFIPRFDLPSFP"
[A] label 1

[Q] Threshold query (protein stability index >= 0.7) on "SPALVRLSLPRP"
[A] label 1

[Q] Quick check, protein stability index >= 0.7? "PPLTPPPPTPPP"
[A] label 0

[Q] Please indicate if the recorded protein stability index for "VIGFGEVWIRCV" meets or exceeds 0.7.
[A] label 0

[Q] Form field: protein stability index at least 0.7? Entry: "AVGARRRLEVGD"
[A] label 1

[Q] Please indicate if the recorded protein stability index for "PEPSRRASAVSN" meets or exceeds 0.7.
[A] label 0

[Q] Form field: protein stability index at least 0.7? Entry: "LFLTSFRFLRLF"
[A] label 0

[Q] Does protein stability index meet or surpass 0.7 for "PARPNMHTTPAD" ?
[A] label 0

[Q] Hello, I need to know if "QPNDIEIYTLLT" has measured protein stability index not below 0.7. Thanks!
[A] label 0

[Q] Form field: protein stability index at least 0.7? Entry: "SPPPLLLPLSPP"
[A] label 1

[Q] Assess whether reported protein stability index for "LALTRAAITHFF" sits at 0.7 or higher.
[A] label 0

[Q] Is protein stability index at least 0.7? Consider "DEVLVSGGKWWE"
[A] label 1

[Q] Does protein stability index meet or surpass 0.7 for "DFCPVYRVIIWN" ?
[A] label 0

[Q] Record "HTGLRASSPNST" ; criterion: protein stability index no lower than 0.7. Met?
[A] label 1

[Q] # check: protein stability index of "ERMLHGTATSVW" is greater than or equal to 0.7
[A] label 1

[Q] Please tell me: is the sequence "VCGLGGCGGLGV" at or over 0.7 in terms of protein stability index?
[A] label 1

[Q] Decide: is the reported value of protein stability index for "LGPLGWLVLLLV" equal to or greater than 0.7?
[A] label 0

[Q] Assess whether reported protein stability index for "WPKNSTNHSWKW" sits at 0.7 or higher.
[A] label 1

[Q] Please check the record "LVGTFTEKFRVC" and state if its protein stability index is at or above 0.7.
[A] label 0

[Q] Assess whether reported protein stability index for "CRCVRVGSVVLD" sits at 0.7 or higher.
[A] label 0

[Q] Does the reported protein stability index for "TEINEAQNIPEK" fall at or above the 0.7 mark?
[A] label 0

[Q] API: above_or_equal(metric=protein stability index, cutoff=0.7) for item "ESSQLELRGGGR"
[A] label 1

[Q] Is reported protein stability index greater than or equal to 0.7 here: "GLWAEGCGGEVV"
[A] label 0

[Q] Record "KLNLKVRKRERP" ; criterion: protein stability index no lower than 0.7. Met?
[A] label 0

[Q] Is reported protein stability index greater than or equal to 0.7 here: "PPSPHLVPYYLP"
[A] label 0

[Q] Check if protein stability index >= 0.7 (inclusive). Item: "IYSPQIPTPPVL"
[A] label 0

[Q] Threshold query (protein stability index >= 0.7) on "LVFRSMFFFRLF"
[A] label 0

[Q] Decide: is the reported value of protein stability index for "NDAKQKRLTFET" equal to or greater than 0.7?
[A] label 0

[Q] Given the entry "PSPCRPPHTSAG" , answer whether its protein stability index meets or surpasses 0.7.
[A] label 0

[Q] Is protein stability index at least 0.7? Consider "TAAEECIGRAIG"
[A] label 0

[Q] Is protein stability index at least 0.7? Consider "SRMRRGCTGCEC"
[A] label 0

[Q] Given the entry "WLEVHVRERPGL" , answer whether its protein stability index meets or surpasses 0.7.
[A] label 0

[Q] Is protein stability index for "VRLIGVSVGALE" at or above 0.7?
[A] label 0

[Q] Hi, just wondering whether "FFNFVYYFTTPR" shows protein stability index of 0.7 or higher.
[A] label 0
